The reader will find reported protein stability index values listed item by item below.
B1: CROP (parent)
chain: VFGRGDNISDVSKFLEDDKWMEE

Variants of: B1
Experiment: protein stability index of a GFP-peptide fusion (GPS, HEK-293T) (PSI 1-6); higher = more stable;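 further: lentivirally expressed fusions sorted by FACS into six bins by GFP to DsRed ratio, PSI derived from sequencing read proportions per bin multiplied by bin number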
Conditions: c terminus: native

[
  {
    "sequence-text": "VFGRGDQISDVSKFLEDDKWMEE [N7Q]",
    "protein stability index": 1.79
  },
  {
    "sequence-text": "VFGRGDNGSDVSKFLEDDKWMEE [I8G]",
    "protein stability index": 3.51
  },
  {
    "sequence-text": "VFGRGDNHSDVSKFLEDDKWMEE [I8H]",
    "protein stability index": 1.93
  },
  {
    "sequence-text": "VFGRGDNISDVSKFLEDNKWMEE [D18N]",
    "protein stability index": 2.44
  },
  {
    "sequence-text": "VFGRGDNISDVSKFLEDDKWSEE [M21S]",
    "protein stability index": 2.52
  },
  {
    "sequence-text": "VFGRGDNISDVSKWLEDDKWMEE [F14W]",
    "protein stability index": 1.96
  },
  {
    "sequence-text": "VFGRGDNISDVSKFLEDDKWMET [E23T]",
    "protein stability index": 4.08
  },
  {
    "sequence-text": "VFGRGDNISDVSKFDEDDKWMEE [L15D]",
    "protein stability index": 1.85
  },
  {
    "sequence-text": "VFGRGDNISDVPKFLEDDKWMEE [S12P]",
    "protein stability index": 1.61
  },
  {
    "sequence-text": "VFGRGDNISDVSKFTEDDKWMEE [L15T]",
    "protein stability index": 3.47
  },
  {
    "sequence-text": "VFGRGDNQSDVSKFLEDDKWMEE [I8Q]",
    "protein stability index": 2.07
  },
  {
    "sequence-text": "VFGRGDNISTVSKFLEDDKWMEE [D10T]",
    "protein stability index": 2.74
  },
  {
    "sequence-text": "VFGRGDNISDVNKFLEDDKWMEE [S12N]",
    "protein stability index": 2
  },
  {
    "sequence-text": "VDGRGDNISDVSKFLEDDKWMEE [F2D]",
    "protein stability index": 3.87
  },
  {
    "sequence-text": "VFGRGDNISDVSKFLEDWKWMEE [D18W]",
    "protein stability index": 2.04
  },
  {
    "sequence-text": "VFCRGDNISDVSKFLEDDKWMEE [G3C]",
    "protein stability index": 2.48
  },
  {
    "sequence-text": "VFGRRDNISDVSKFLEDDKWMEE [G5R]",
    "protein stability index": 1.74
  },
  {
    "sequence-text": "GFGRGDNISDVSKFLEDDKWMEE [V1G]",
    "protein stability index": 3.63
  },
  {
    "sequence-text": "VFGRGDNISDQSKFLEDDKWMEE [V11Q]",
    "protein stability index": 2.87
  },
  {
    "sequence-text": "VFGRGDNLSDVSKFLEDDKWMEE [I8L]",
    "protein stability index": 2.11
  },
  {
    "sequence-text": "VFGRGDNISDVSKFLEDDRWMEE [K19R]",
    "protein stability index": 2.5
  },
  {
    "sequence-text": "VFGRGDNISDCSKFLEDDKWMEE [V11C]",
    "protein stability index": 2.35
  }
]
